Attribution: the supplement of paper PMC7877785

assay details: self-splicing fitness, log relative to wild type (ln ratio); higher = more splicing; Tetrahymena group I intron in knt gene, E. coli kanamycin selection, DiMSum; sequences stand for … in CUCUCU…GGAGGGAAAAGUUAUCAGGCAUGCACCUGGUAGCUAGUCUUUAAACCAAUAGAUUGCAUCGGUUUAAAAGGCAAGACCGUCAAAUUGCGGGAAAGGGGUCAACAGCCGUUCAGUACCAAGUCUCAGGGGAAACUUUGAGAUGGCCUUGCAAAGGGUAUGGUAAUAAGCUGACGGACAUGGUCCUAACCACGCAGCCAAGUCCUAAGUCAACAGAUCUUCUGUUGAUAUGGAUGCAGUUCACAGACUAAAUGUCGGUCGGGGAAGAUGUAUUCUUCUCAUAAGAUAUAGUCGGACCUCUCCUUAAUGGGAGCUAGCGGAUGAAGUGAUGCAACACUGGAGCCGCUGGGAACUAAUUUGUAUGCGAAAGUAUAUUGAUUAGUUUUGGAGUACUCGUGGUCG;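 also: selection with 25 µg/mL kanamycin versus none on LB agar overnight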
run conditions: 30 °C

{"record sequence": "GGCUAGCAAUAUUACGCAGG", "self-splicing fitness (ln)": -3.5}
{"record sequence": "UAAAAGCAAUAUUACGGCCA", "self-splicing fitness (ln)": 0.0708}
{"record sequence": "AAUUAGCAAUAUUACGGCGA", "self-splicing fitness (ln)": -0.312}
{"record sequence": "CAAAAGCAAUAUUACGACGG", "self-splicing fitness (ln)": 0.122}
{"record sequence": "GAAGAGCAAUAUUACGUUAC", "self-splicing fitness (ln)": -2.82}
{"record sequence": "AGCUAGCAAUAUUACGAAAG", "self-splicing fitness (ln)": -3.5}
{"record sequence": "CGAGAGCAAUAUUACGCGUC", "self-splicing fitness (ln)": -3.01}
{"record sequence": "AUCCAGCAAUAUUACGUUCU", "self-splicing fitness (ln)": -1.64}
{"record sequence": "AAACAGCAAUAUUACGGAAC", "self-splicing fitness (ln)": -3.5}
{"record sequence": "UAAGAGCAAUAUUACGCAUC", "self-splicing fitness (ln)": -4.23}
{"record sequence": "GGUGAGCAAUAUUACGGUCG", "self-splicing fitness (ln)": -1.29}
{"record sequence": "CGAGAGCAAUAUUACGGUGU", "self-splicing fitness (ln)": -3.56}
{"record sequence": "CUAUAGCAAUAUUACGGCAU", "self-splicing fitness (ln)": -3.11}
{"record sequence": "GCGCAGCAAUAUUACGCCGG", "self-splicing fitness (ln)": -2.75}
{"record sequence": "GAUAAGCAAUAUUACGUCGC", "self-splicing fitness (ln)": -1.76}
{"record sequence": "AAAGAGCAAUAUUACGCAAG", "self-splicing fitness (ln)": -3.4}

###

self-splicing fitness (ln) reference
assay details: self-splicing fitness, log relative to wild type (ln ratio); higher = more splicing; Tetrahymena group I intron in knt gene, E. coli kanamycin selection, DiMSum; sequences stand for … in CUCUCU…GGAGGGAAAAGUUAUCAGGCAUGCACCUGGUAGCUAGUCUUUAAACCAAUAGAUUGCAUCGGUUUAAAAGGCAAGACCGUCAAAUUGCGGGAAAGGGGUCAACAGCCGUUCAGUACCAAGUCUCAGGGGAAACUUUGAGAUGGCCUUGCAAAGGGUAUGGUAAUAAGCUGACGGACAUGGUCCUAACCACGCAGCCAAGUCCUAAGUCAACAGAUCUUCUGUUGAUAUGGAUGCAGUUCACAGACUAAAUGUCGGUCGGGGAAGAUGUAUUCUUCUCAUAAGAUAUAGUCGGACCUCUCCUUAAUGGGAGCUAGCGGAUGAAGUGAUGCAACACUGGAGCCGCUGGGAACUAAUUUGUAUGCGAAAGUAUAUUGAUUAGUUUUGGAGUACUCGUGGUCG
run conditions: 30 °C
measure: self-splicing fitness (ln)

{"record sequence": "GGAAAGCAAUAUUACGAUAG", "measure": "self-splicing fitness (ln)", "test value": -3.1}
{"record sequence": "AUCUAGCAAUAUUACGUUCC", "measure": "self-splicing fitness (ln)", "test value": -1.16}
{"record sequence": "UGGCAGCAAUAUUACGCUCG", "measure": "self-splicing fitness (ln)", "test value": -0.792}
{"record sequence": "UGCUAGCAAUAUUACGGCCG", "measure": "self-splicing fitness (ln)", "test value": -0.359}
{"record sequence": "CAACAGCAAUAUUACGGGCG", "measure": "self-splicing fitness (ln)", "test value": -0.0253}
{"record sequence": "AUAGAGCAAUAUUACGAACC", "measure": "self-splicing fitness (ln)", "test value": -2.16}
{"record sequence": "GAUAAGCAAUAUUACGCAUG", "measure": "self-splicing fitness (ln)", "test value": -1.21}
{"record sequence": "CGGUAGCAAUAUUACGGCGU", "measure": "self-splicing fitness (ln)", "test value": -2.03}
